meta.source: ChEMBL document CHEMBL3792371

# Organism: Rattus norvegicus
# Procedure Summary: Selectivity ratio of Ki for SERT in rat striatal synaptosomes to Ki for VMAT2 in rat striatal synaptic vesicle
# Format: subcellular
Readings of Ratio Ki for the listed compounds

{"Smiles Record": "OC[C@H](O)CN1[C@@H](CCc2ccc(O)cc2)CCC[C@H]1CCc1ccc(O)cc1", "Ratio Ki": 331}
{"Smiles Record": "CN1[C@@H](CCc2ccc(O)cc2)CCC[C@H]1CCc1ccc(O)cc1", "Ratio Ki": 260}
{"Smiles Record": "CN1[C@@H](CCc2ccc(O)cc2)CCC[C@H]1CCc1ccc(OCCF)cc1", "Ratio Ki": 335}
{"Smiles Record": "CC(=O)Oc1ccc(CC[C@H]2CCC[C@@H](CCc3ccc(OC(C)=O)cc3)N2C)cc1", "Ratio Ki": 163}
{"Smiles Record": "OC[C@H](O)CN1[C@@H](CCc2ccc(OCCF)cc2)CCC[C@H]1CCc1ccc(OCCF)cc1", "Ratio Ki": 275}

====

# Target Entity: Synaptic vesicular amine transporter (Rattus norvegicus)
# Sequence (Q01827 whole entry): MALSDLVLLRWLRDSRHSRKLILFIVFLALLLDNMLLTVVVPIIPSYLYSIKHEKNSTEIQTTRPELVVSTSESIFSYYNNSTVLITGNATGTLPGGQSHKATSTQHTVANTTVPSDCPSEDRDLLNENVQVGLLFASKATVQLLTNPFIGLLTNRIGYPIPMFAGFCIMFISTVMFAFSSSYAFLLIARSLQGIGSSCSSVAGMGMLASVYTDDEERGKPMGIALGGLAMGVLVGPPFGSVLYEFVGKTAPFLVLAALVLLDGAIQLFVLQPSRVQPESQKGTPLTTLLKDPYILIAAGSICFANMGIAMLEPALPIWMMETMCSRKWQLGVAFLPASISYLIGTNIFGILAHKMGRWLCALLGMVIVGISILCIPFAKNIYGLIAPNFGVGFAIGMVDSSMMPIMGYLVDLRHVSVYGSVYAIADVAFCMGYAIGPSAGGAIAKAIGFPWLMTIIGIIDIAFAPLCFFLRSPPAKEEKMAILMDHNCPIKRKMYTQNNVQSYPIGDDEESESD
# Procedure Summary: Inhibition of VMAT2 in rat striatal synaptic vesicle assessed as reduction of [3H]dopamine uptake after 8 mins by liquid scintillation spectrometric method
Readings of Ki for the listed compounds

{"Smiles Record": "CN1[C@@H](CCc2ccc(OCCF)cc2)CCC[C@H]1CCc1ccc(OCCF)cc1", "Unit Spec": "nM", "Ki": 140}
{"Smiles Record": "OC[C@H](O)CN1[C@@H](CCc2ccc(O)cc2)CCC[C@H]1CCc1ccc(O)cc1", "Unit Spec": "nM", "Ki": 39}
{"Smiles Record": "CN1[C@@H](CCc2ccc(O)cc2)CCC[C@H]1CCc1ccc(OCCF)cc1", "Unit Spec": "nM", "Ki": 31}
{"Smiles Record": "OC[C@H](O)CN1[C@@H](CCc2ccc(OCCF)cc2)CCC[C@H]1CCc1ccc(OCCF)cc1", "Unit Spec": "nM", "Ki": 120}
{"Smiles Record": "OC[C@H](O)CN1[C@@H](CCc2ccc(O)cc2)CCC[C@H]1CCc1ccc(OCCF)cc1", "Unit Spec": "nM", "Ki": 63}
{"Smiles Record": "Oc1ccc(CC[C@H]2CCC[C@@H](CCc3ccc(OCCF)cc3)N2)cc1", "Unit Spec": "nM", "Ki": 32}
{"Smiles Record": "FCCOc1ccc(CC[C@H]2CCC[C@@H](CCc3ccc(OCCF)cc3)N2)cc1", "Unit Spec": "nM", "Ki": 40}
{"Smiles Record": "CC(=O)Oc1ccc(CC[C@H]2CCC[C@@H](CCc3ccc(OC(C)=O)cc3)N2)cc1", "Unit Spec": "nM", "Ki": 220}
{"Smiles Record": "CN1[C@@H](CCc2ccc(O)cc2)CCC[C@H]1CCc1ccc(O)cc1", "Unit Spec": "nM", "Ki": 46}
{"Smiles Record": "Oc1ccc(CC[C@H]2CCC[C@@H](CCc3ccc(O)cc3)N2)cc1", "Unit Spec": "nM", "Ki": 31}
{"Smiles Record": "CC(=O)Oc1ccc(CC[C@H]2CCC[C@@H](CCc3ccc(OC(C)=O)cc3)N2C)cc1", "Unit Spec": "nM", "Ki": 71}

====

Readings of pKi for the listed compounds
# Target Entity: Sodium-dependent dopamine transporter (Rattus norvegicus)
# Sequence (P23977 whole entry): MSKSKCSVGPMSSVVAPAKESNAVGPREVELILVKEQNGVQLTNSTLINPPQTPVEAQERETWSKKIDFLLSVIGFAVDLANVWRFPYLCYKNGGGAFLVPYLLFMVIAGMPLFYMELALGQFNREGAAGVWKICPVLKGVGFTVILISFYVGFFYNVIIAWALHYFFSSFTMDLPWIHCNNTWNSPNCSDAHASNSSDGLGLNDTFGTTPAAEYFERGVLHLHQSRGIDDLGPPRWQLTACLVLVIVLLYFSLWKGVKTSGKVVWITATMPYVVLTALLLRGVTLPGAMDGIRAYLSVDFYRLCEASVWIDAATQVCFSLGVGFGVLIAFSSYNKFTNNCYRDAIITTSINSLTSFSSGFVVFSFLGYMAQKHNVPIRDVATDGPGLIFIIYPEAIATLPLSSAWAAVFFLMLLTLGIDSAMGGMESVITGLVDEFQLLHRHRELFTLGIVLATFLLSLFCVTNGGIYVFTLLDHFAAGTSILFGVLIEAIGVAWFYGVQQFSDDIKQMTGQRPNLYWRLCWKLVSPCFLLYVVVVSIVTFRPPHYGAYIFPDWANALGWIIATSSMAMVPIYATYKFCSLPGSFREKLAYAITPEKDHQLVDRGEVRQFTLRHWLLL
# Procedure Summary: Inhibition of DAT in rat striatal synaptosomes assessed as reduction of [3H]dopamine uptake preincubated for 5 mins followed by [3H]dopamine addition measured after 10 mins by liquid scintillation spectrometric method
pKi: −log10 of the molar value.
Measured Parameter: pKi

{"Smiles Record": "OC[C@H](O)CN1[C@@H](CCc2ccc(O)cc2)CCC[C@H]1CCc1ccc(OCCF)cc1", "Assay Value": 5.26}
{"Smiles Record": "CC(=O)Oc1ccc(CC[C@H]2CCC[C@@H](CCc3ccc(OC(C)=O)cc3)N2)cc1", "Assay Value": 5.83}
{"Smiles Record": "Oc1ccc(CC[C@H]2CCC[C@@H](CCc3ccc(O)cc3)N2)cc1", "Assay Value": 6.06}
{"Smiles Record": "CC(=O)Oc1ccc(CC[C@H]2CCC[C@@H](CCc3ccc(OC(C)=O)cc3)N2C)cc1", "Assay Value": 5.67}
{"Smiles Record": "CN1[C@@H](CCc2ccccc2)CCC[C@H]1CCc1ccccc1", "Assay Value": 5.98}
{"Smiles Record": "FCCOc1ccc(CC[C@H]2CCC[C@@H](CCc3ccc(OCCF)cc3)N2)cc1", "Assay Value": 5.78}
{"Smiles Record": "Oc1ccc(CC[C@H]2CCC[C@@H](CCc3ccc(OCCF)cc3)N2)cc1", "Assay Value": 5.78}
{"Smiles Record": "CN1[C@@H](CCc2ccc(O)cc2)CCC[C@H]1CCc1ccc(O)cc1", "Assay Value": 5.87}

====

# Target Entity: UniProt:P31652
# Procedure Summary: Inhibition of SERT in rat striatal synaptosomes assessed as reduction of [3H]5-HT uptake preincubated for 5 mins followed by [3H]5-HT addition measured after 10 mins by liquid scintillation spectrometric method
pKi: −log10 of the molar value.

{"Smiles Record": "CC(=O)Oc1ccc(CC[C@H]2CCC[C@@H](CCc3ccc(OC(C)=O)cc3)N2C)cc1", "pKi": 4.94}
{"Smiles Record": "Oc1ccc(CC[C@H]2CCC[C@@H](CCc3ccc(O)cc3)N2)cc1", "pKi": 5.99}
{"Smiles Record": "CN1[C@@H](CCc2ccccc2)CCC[C@H]1CCc1ccccc1", "pKi": 5.44}
{"Smiles Record": "OC[C@H](O)CN1[C@@H](CCc2ccc(O)cc2)CCC[C@H]1CCc1ccc(O)cc1", "pKi": 4.89}
{"Smiles Record": "CC(=O)Oc1ccc(CC[C@H]2CCC[C@@H](CCc3ccc(OC(C)=O)cc3)N2)cc1", "pKi": 5.67}

====

# Target Entity: Sodium-dependent dopamine transporter (Rattus norvegicus)
# Procedure Summary: Inhibition of DAT in rat striatal synaptosomes assessed as reduction of [3H]dopamine uptake preincubated for 5 mins followed by [3H]dopamine addition measured after 10 mins by liquid scintillation spectrometric method
pKi: −log10 of the molar value.
Readings of pKi for the listed compounds

{"Smiles Record": "CN1[C@@H](CCc2ccc(OCCF)cc2)CCC[C@H]1CCc1ccc(OCCF)cc1", "pKi": 5.46}
{"Smiles Record": "OC[C@H](O)CN1[C@@H](CCc2ccc(OCCF)cc2)CCC[C@H]1CCc1ccc(OCCF)cc1", "pKi": 5.43}
{"Smiles Record": "OC[C@H](O)CN1[C@@H](CCc2ccc(O)cc2)CCC[C@H]1CCc1ccc(O)cc1", "pKi": 5.84}
{"Smiles Record": "CN1[C@@H](CCc2ccc(O)cc2)CCC[C@H]1CCc1ccc(OCCF)cc1", "pKi": 5.53}
{"Smiles Record": "COc1ccc(CC[C@H]2CCC[C@@H](CCc3ccc(OC)cc3)N2C[C@@H](O)CO)cc1", "pKi": 5.84}

====

# Target Entity: Sodium-dependent serotonin transporter (Rattus norvegicus, UniProt P31652)
# Sequence (P31652 whole entry): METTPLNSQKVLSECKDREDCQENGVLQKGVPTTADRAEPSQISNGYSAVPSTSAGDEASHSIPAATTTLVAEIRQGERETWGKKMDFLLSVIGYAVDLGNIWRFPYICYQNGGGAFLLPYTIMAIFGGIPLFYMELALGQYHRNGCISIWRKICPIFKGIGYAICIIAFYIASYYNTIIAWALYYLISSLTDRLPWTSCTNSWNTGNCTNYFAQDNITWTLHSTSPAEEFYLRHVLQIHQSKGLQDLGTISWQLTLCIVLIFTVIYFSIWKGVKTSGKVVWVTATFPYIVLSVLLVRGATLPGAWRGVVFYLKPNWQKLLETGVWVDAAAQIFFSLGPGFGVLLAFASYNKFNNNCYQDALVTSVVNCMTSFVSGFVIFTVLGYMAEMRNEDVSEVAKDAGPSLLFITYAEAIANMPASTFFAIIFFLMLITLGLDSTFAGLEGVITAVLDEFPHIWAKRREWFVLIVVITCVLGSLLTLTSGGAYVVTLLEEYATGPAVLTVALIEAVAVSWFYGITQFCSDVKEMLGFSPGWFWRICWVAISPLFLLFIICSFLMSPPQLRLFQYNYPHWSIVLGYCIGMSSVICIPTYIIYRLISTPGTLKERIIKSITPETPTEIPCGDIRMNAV
# Procedure Summary: Inhibition of SERT in rat striatal synaptosomes assessed as reduction of [3H]5-HT uptake preincubated for 5 mins followed by [3H]5-HT addition measured after 10 mins by liquid scintillation spectrometric method
Simple rule here: Ki less than 7 µM is true, otherwise false.

{"Smiles Record": "FCCOc1ccc(CC[C@H]2CCC[C@@H](CCc3ccc(OCCF)cc3)N2)cc1", "Class Assignment": "true"}
{"Smiles Record": "COc1ccc(CC[C@H]2CCC[C@@H](CCc3ccc(OC)cc3)N2C[C@@H](O)CO)cc1", "Class Assignment": "false"}
{"Smiles Record": "OC[C@H](O)CN1[C@@H](CCc2ccc(O)cc2)CCC[C@H]1CCc1ccc(OCCF)cc1", "Class Assignment": "true"}
{"Smiles Record": "OC[C@H](O)CN1[C@@H](CCc2ccc(OCCF)cc2)CCC[C@H]1CCc1ccc(OCCF)cc1", "Class Assignment": "false"}
{"Smiles Record": "Oc1ccc(CC[C@H]2CCC[C@@H](CCc3ccc(OCCF)cc3)N2)cc1", "Class Assignment": "true"}
{"Smiles Record": "CN1[C@@H](CCc2ccc(O)cc2)CCC[C@H]1CCc1ccc(O)cc1", "Class Assignment": "false"}
{"Smiles Record": "CN1[C@@H](CCc2ccc(O)cc2)CCC[C@H]1CCc1ccc(OCCF)cc1", "Class Assignment": "false"}
{"Smiles Record": "CN1[C@@H](CCc2ccc(OCCF)cc2)CCC[C@H]1CCc1ccc(OCCF)cc1", "Class Assignment": "false"}
